Test system: LXRa homodimer (NR concentration 270 nM)
experimentDescription: PBM binding z-score (relative to random genomic background probes); higher = stronger binding; sequences stand for … in GC…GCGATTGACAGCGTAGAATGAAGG
measuredProperty: PBM binding z-score
Could you keep your reply to the number by itself?

GGAACGAGAGCATTCGAGTTGATAGCATGGCGAT ... -0.97
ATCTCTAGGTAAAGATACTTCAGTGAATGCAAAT ... 0.0511
ATATGTAGGTTATCGGGTTATTCAGTTTGCGCAT ... 1.11
CCGACGGGGGCATAAGGTTACCATAAGCCAGCCC ... 0.249

The value of PBM binding z-score measured for the sequence "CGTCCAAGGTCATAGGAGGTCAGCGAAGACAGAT" turned out to be 5.46

The value of PBM binding z-score measured for the sequence "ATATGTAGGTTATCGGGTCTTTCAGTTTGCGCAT" turned out to be 1.05

The value of PBM binding z-score measured for the sequence "GCGACTGGGGAAAAGCAGGTTACCATAAGGTTGG" turned out to be -0.496

The value of PBM binding z-score measured for the sequence "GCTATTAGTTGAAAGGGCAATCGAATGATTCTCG" turned out to be 0.189

The value of PBM binding z-score measured for the sequence "TCGAGTAGGCTAGGGGCATTCAGAATGGCGTCGA" turned out to be -0.903

The value of PBM binding z-score measured for the sequence "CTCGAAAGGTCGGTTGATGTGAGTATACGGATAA" turned out to be -0.145

The value of PBM binding z-score measured for the sequence "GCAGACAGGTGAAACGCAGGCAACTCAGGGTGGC" turned out to be -0.806

meta.source: the supplement of paper PMC6555819
